- Tested on: CAKI-1 renal
- MEASUREMENT DESCRIPTION: NCI tumour cell line growth inhibition, 48 h; in the data active = GI50 below about 0.43 µM; inactive = the rest
Select the correct class. Options are active, inactive and nothing else.

Identify the outcome logged in this assay for the compound shown: O=S(=O)(NC1=NCCN1C(=S)SN1CCn2c1nsc2=S)c1cccc(Cl)c1
inactive

// outcome(item) with item = CC1(C)OC2=C(CC1Br)C(=O)C(=O)c1ccccc12 (stereo unspecified)
inactive

Write down the call the test reported for this compound. Item: COc1ccc(C(=O)C#Cc2cnc(OC)nc2OC)cc1
inactive

Recorded test call requested for CC/C=C\C[C@@H](O)C/C=C1/C(=O)C=C[C@H]1C/C=C\CCCC(=O)OC
inactive

Can you look up the reported call for COc1ccc2c(c1)CCCN2c1c2ccccc2nc2ccccc12 for me?
active

// param item: O=C(Nc1ccncc1)C(=O)c1cn(S(=O)(=O)c2cccc(F)c2)c2ccccc12 ; yields the recorded call
inactive

Which outcome was assigned to NC(=O)NS(=O)(=O)c1ccc(N2N=C(C(F)(F)F)CC2c2cc(C(F)(F)F)cc(C(F)(F)F)c2)cc1 (stereo unspecified) in this test?
inactive

Could you please tell me the result logged for COc1ccc(-c2nc(-c3nc4ccc(Cl)cc4[nH]3)c3ccccn23)cc1 in this assay?
inactive

Hello, I am checking results. What call was entered for N#CC(C#N)=C1Nc2ccccc2S1 ?
inactive

I'd appreciate the recorded outcome for O=C(O)CCNC1CCCCC1 from this test.
inactive

# fetch the recorded call for O=C1Nc2ccccc2C1(c1ccc(O)cc1)c1ccc(O)cc1 here
inactive

Where do these numbers come from? They come from PubChem BioAssay (NCI).
